- test_system: human D2 receptor (Homo sapiens (Human))
- Sequence (P14416 whole entry): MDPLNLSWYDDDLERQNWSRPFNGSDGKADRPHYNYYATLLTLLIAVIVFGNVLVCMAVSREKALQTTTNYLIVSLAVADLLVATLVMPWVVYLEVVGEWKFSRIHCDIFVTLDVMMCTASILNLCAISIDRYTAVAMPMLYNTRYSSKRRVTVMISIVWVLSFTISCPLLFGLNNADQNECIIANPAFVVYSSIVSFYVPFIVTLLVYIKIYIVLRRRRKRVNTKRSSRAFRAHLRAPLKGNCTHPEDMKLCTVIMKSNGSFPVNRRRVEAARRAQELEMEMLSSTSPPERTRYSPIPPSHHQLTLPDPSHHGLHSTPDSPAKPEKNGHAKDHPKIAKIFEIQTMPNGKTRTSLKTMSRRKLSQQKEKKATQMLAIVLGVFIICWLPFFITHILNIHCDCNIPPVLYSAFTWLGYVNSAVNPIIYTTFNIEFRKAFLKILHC
- assay_text: Test 1: binding activity for human D2 receptor ([3H]Spiperone, CHO cell membrane fraction)
- measurement_context: human D2 receptor, [3H]Spiperone
property_label: pKi
On this scale, pKi is minus log10 of a concentration expressed in M (mol/L).

Answered examples (2):
{"columns": ["compound", "test_system", "pKi"],
 "data": [
  ["Cn1ccc2c1CCCN(CCN1CCC(c3noc4ccccc34)CC1)C2=O [Example 103]", "human D2 receptor (Homo sapiens (Human))", 6.89],
  ["Cc1nc(C)c2c(=O)n(CCN3CCC(c4noc5ccccc45)CC3)ccc2n1 [Example 114]", "human D2 receptor (Homo sapiens (Human))", 6.51]
]}

Please look up its pKi: Cc1noc2c1C(=O)N(CCN1CCC(c3noc4ccccc34)CC1)CC2 [Example 33]
6.00

Then Cc1cncc2c1CCN(CCN1CCC(c3noc4ccccc34)CC1)C2=O [Example 138] ?
7.12

###

- test_system: human 5-HT2A receptor (Homo sapiens (Human))
- Sequence (P28223 whole entry): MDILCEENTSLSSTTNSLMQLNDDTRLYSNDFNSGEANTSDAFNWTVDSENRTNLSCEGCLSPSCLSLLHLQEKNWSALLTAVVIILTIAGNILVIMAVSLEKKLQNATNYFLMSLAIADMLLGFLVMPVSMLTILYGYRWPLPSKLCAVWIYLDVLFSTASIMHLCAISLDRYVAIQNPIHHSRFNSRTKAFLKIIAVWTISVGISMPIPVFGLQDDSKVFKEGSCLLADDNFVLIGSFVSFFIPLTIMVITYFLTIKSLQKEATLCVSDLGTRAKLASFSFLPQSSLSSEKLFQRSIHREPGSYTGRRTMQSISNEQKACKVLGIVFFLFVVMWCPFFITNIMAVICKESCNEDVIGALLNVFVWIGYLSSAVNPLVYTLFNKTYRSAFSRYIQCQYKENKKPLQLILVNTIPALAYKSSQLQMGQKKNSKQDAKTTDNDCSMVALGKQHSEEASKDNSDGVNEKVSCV
- assay_text: Test 3: antagonist activity for human 5-HT2A receptor (aequorin luminescence, CHO-K1 cells)
- Assay type: cell-based
- measurement_context: aequorin luminescence, CHO-K1 cells, 1 nmol/L 5-HT
pIC50 overview
pIC50 here: minus log base 10 of the concentration, concentration in moles per litre.

{"columns": ["molecule", "test_system", "pIC50"],
 "data": [
  ["O=C1c2ncccc2CCN1CCN1CCC(c2noc3cc(F)ccc23)CC1", "human 5-HT2A receptor (Homo sapiens (Human))", 8.15],
  ["CC1(CCN2CCN(c3noc4ccccc34)CC2)CCc2cccnc2C1=O (stereo not drawn)", "human 5-HT2A receptor (Homo sapiens (Human))", 7.72],
  ["O=C1c2ncccc2CCN1CCN1CCN(c2noc3cc(F)ccc23)CC1", "human 5-HT2A receptor (Homo sapiens (Human))", 7.64],
  ["O=C1c2ncccc2CCN1CCN1CCN(c2noc3cc(Cl)ccc23)CC1", "human 5-HT2A receptor (Homo sapiens (Human))", 6.92],
  ["Cc1cccc2c(C3CCN(CCN4CCc5cccnc5C4=O)CC3)noc12", "human 5-HT2A receptor (Homo sapiens (Human))", 6.04]
]}

Give its pIC50 value. Item: Cc1nc2c(o1)CCCN(CCN1CCC(c3noc4ccccc34)CC1)C2=O
6.94

Item: CCc1ccc2c(n1)C(=O)N(CCN1CCC(c3noc4ccccc34)CC1)CC2
7.16

Then O=C1c2cccnc2CCN1CCN1CCC(c2noc3cc(F)ccc23)CC1 ?
7.24

Here is the next molecule: Cn1ncc2c1CCN(CCN1CCN(c3noc4ccccc34)CC1)C2=O
8.02

###

- test_system: human 5-HT1A receptor (Homo sapiens (Human), UniProt P08908)
- Sequence (P08908 whole entry): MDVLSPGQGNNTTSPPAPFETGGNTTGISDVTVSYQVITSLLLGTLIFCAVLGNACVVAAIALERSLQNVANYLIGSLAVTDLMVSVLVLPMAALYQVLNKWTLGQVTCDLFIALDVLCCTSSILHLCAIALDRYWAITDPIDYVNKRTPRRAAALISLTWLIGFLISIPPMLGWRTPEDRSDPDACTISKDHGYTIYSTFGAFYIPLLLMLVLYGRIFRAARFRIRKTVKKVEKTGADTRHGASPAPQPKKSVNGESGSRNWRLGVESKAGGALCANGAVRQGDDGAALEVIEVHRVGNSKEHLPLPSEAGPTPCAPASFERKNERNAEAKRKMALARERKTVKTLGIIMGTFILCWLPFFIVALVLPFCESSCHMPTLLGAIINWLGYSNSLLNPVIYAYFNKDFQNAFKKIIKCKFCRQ
- assay_text: Test 2: agonist activity for human 5-HT1A receptor ([35S]GTPγS binding)
- measurement_context: [35S]GTPγS binding; concentration at which half the activity of Emax was obtained
- Experimental: Test 2: Evaluation of Agonist Activity for Human 5-HT1A Receptor CHO cell membrane fraction in which human 5-HT1A receptor was expressed as used in Test 1 was purchased. To a buffer containing guanosine diphosphate were added a test compound dissolved in DMSO, each receptor membrane sample diluted with buffer, and [^35S] […] Radioactivity remaining on the […] was measured with a liquid scintillation counter. Agonist activity was calculated from the following formula.
As shown below, each of these compounds has a reported EC50 value.
The answer is to be given in µM; state only the numeric part.

# annotated cases, reported EC50 shown
{"columns": ["compound", "property_label", "meas_value"],
 "data": [
  ["Cn1ncc2c1C(=O)N(CCN1CCN(c3nsc4ccccc34)CC1)CC2 [Example 59]", "EC50", 0.008],
  ["CC(C)c1ncc2c(n1)CCN(CCN1CCN(c3nsc4ccccc34)CC1)C2=O [Example 180]", "EC50", 1.26],
  ["Cn1cnc2c1C(=O)N(CCN1CCN(c3nsc4ccccc34)CC1)CC2 [Example 56]", "EC50", 0.0666]
]}

Form field: reported EC50 of Cc1ncc2c(n1)CCN(CCN1CCN(c3nsc4ccccc34)CC1)C2=O [Example 90]
0.0577

Would you kindly repeat that for Cn1ncc2c1C(=O)N(CCN1CCN(c3nsc4ccccc34)CC1)CCC2 [Example 47] ?
0.0922

Please do the same for CCn1cc2c(n1)CCN(CCN1CCN(c3nsc4ccccc34)CC1)C2=O [Example 163] as well.
0.011

Further, for O=c1c2ncccc2ccn1CCN1CCC(c2noc3cc(F)ccc23)CC1 [Example 12] ?
0.096

Now this one: Cc1c2c(nn1C)CCN(CCN1CCN(c3nsc4ccccc34)CC1)C2=O [Example 65]
0.0021

Then this compound: Cn1ncc2c1CCCN(CCN1CCC(c3noc4ccccc34)CC1)C2=O [Example 43]
0.0085

Proceed to Cc1cncc2c1CCN(CCN1CCC(c3noc4ccccc34)CC1)C2=O [Example 138]
0.1

Now consider Cn1ncc2c1CCC(CCN1CCC(c3noc4ccccc34)CC1)C2=O (stereo not drawn) [Example 28] and answer again.
0.00759

What do you have for CC(CN1CCC(c2noc3cc(F)ccc23)CC1)N1CCc2cccnc2C1=O (stereo not drawn) [Example 122] ?
0.121

Note, next up: Cn1cc2c(n1)CCN(CCN1CCC(c3noc4ccccc34)C1)C2=O (stereo not drawn) [Example 174]
0.193

Try this compound next: Cn1cnc2c1CCN(CCN1CCN(c3nsc4ccccc34)CC1)C2=O [Example 54]
0.0384

Let us now turn to O=C1c2c(Br)n[nH]c2CCN1CCN1CCC(c2noc3ccccc23)CC1 [Example 192]
7.67
